- Tested on: Sagittaria pygmaea, L.
- Test Details: Preemergence weed control under flooded paddy conditions, SAGPY (Arrowhead (Pygmaea))
- Assay type: in vivo
- Protocol Conditions: Rate 0.2500 kg/ha; preemergence, flooded paddy; rated three to four weeks after treatment
Readout Kind: SAGPY herbicidal effect rating
Lab note: write the figure by itself, no unit.

Some entries whose results are on file:
# Compound, SAGPY herbicidal effect rating
measured = [
    ("Cc1nsc2ccc(-n3c(=O)c(Cl)c(C(F)(F)F)n(C)c3=O)cc12", 0.0),
    ("CC(=O)/C=C/c1nsc2ccc(-n3c(=O)cc(C(F)(F)F)n(C)c3=O)cc12", 3.0),
    ("CCOc1nc(C(F)(F)F)cc(=O)n1-c1ccc2snc(-c3cc(C)ccc3OCC(=O)OC)c2c1", 2.0),
]

Ask: Using the record for CC(C)=CCOCc1nsc2ccc(-n3c(=O)cc(C(F)(F)F)n(C)c3=O)cc12 , report its SAGPY herbicidal effect rating.
Reply: 0.0

----------
- Test system: Echinochloa oryzoides (Ard.) Fritsch.
- Test Details: Preemergence weed control under flooded paddy conditions, ECHORC (Watergrass (Calif.))
- Type: in vivo
- Protocol Conditions: Rate 0.0320 kg/ha; preemergence, flooded paddy; rated three to four weeks after treatment
Readout Kind: ECHORC herbicidal effect rating
Lab note: write the figure by itself, no unit.

# Compound, ECHORC herbicidal effect rating
records = [
    ("COC(=O)C(C)Oc1ccc(-c2nsc3ccc(-n4c(=O)cc(C(F)(F)F)n(C)c4=O)cc23)cc1 (stereo not shown)", 0.0),
    ("COC(=O)COc1ccc(C)cc1-c1noc2ccc(-n3c(=O)cc(C(F)(F)F)n(C)c3=O)c(Cl)c12", 2.5),
    ("Cn1c(C(F)(F)F)cc(=O)n(-c2ccc3snc(C(C)(C)C#N)c3c2)c1=O", 1.0),
]

Ask: Using the record for COC(=O)C(C)Oc1c(-c2nsc3ccc(-n4c(=O)cc(C(F)(F)F)n(C)c4=O)cc23)ccc(C)c1C (stereo not shown) , report its ECHORC herbicidal effect rating.
Reply: 3.7

----------
- System: Oryza sativa, (L.) Tebonnet
- Test Details: Rice tolerance to post-transplant applications under flooded paddy conditions (Example 187), ORYSAT (Rice, Tebonnet); note: meaning of each grade not given here
- Protocol Conditions: Rate 0.0620 kg/ha, rated three to four weeks after treatment
Readout Kind: herbicidal effect rating ORYSAT
Lab note: write the figure by itself, no unit.

# Molecule, herbicidal effect rating ORYSAT
measured = [
    ("CCCCCCCOC(=O)c1nsc2ccc(-n3c(=O)cc(C(F)(F)F)n(C)c3=O)cc12", 4.0),
    ("COc1cccc(-c2nsc3ccc(-n4c(=O)cc(C(F)(F)F)n(C)c4=O)cc23)c1", 1.0),
    ("Cn1c(C(F)(F)F)cc(=O)n(-c2ccc3snc(C(=O)CBr)c3c2)c1=O", 3.0),
    ("COC(=O)COc1cccc(-c2nsc3ccc(-n4c(=O)cc(C(F)(F)F)n(C)c4=O)cc23)c1", 5.5),
    ("Cn1c(C(F)(F)F)cc(=O)n(-c2ccc3snc(C(Cl)Br)c3c2)c1=O (stereo not shown)", 4.0),
]

Ask: Using the record for Cn1c(C(F)(F)F)cc(=O)n(-c2ccc3snc(C(C#N)=Cc4ccccn4)c3c2)c1=O , report its herbicidal effect rating ORYSAT.
Reply: 2.0

Ask: Now give it for C=C(Cl)COC(=O)c1nsc2ccc(-n3c(=O)cc(C(F)(F)F)n(C)c3=O)cc12 too.
Reply: 5.0

Ask: Now give it for Cc1ccc(S(=O)(=O)NC(=O)c2nsc3ccc(-n4c(=O)cc(C(F)(F)F)n(C)c4=O)cc23)cc1 too.
Reply: 3.0

Ask: Now give it for CCC(=O)COC(=O)COc1ccc(C)cc1-c1nsc2ccc(-n3c(=O)cc(C(F)(F)F)n(C)c3=O)cc12 too.
Reply: 5.0

Ask: Now give it for Cn1c(C(F)(F)F)cc(=O)n(-c2ccc3snc(C(=O)Oc4ccc(F)cc4)c3c2)c1=O too.
Reply: 2.0
